Cited source for all entries: patent US20260008815A1

# Target or test system: T1, Recombinant Human FGFR2 alpha (IIIc) Fc Chimera Protein, CF (R&D systems, 712-FR-050) (human, UniProt P21802 22-377)
# T1 construct: bought; not shown: Fc part of the chimera
# T1 sequence (P21802 22-377, change not shown): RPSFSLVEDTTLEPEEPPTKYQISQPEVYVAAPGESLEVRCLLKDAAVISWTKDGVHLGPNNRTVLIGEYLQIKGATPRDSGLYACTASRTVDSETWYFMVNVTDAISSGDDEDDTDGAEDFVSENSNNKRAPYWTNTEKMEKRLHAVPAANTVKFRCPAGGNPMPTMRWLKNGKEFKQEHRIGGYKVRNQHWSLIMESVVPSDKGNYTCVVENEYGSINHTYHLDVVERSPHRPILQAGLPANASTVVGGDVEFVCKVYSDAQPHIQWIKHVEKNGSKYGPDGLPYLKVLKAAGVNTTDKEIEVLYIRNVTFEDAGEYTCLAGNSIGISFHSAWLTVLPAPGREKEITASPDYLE
# Test: ELISA on plate-bound FGFR2-Fc
Bridge positions count the residues as written; N and C are the ends. Ends that are not written are not given here. COCH2 = acetyl group that carries the bridge
Property: ELISA luminescence signal at 10 nmol/L peptide, relative to SEQ ID NO: 47 (=1)

Example binders with recorded ELISA luminescence signal at 10 nmol/L peptide, relative to SEQ ID NO: 47 (=1):
- Binder: "YCEENYLDPEQYKYFIYFK(COCH2)Y (thioether 2-19; not fully specified; printed as Y-(C)-EENYLDPEQYKYFIYF-(K(acetyl))-Y) [cyclic peptide SEQ ID NO: 343]"
  Measured: "≥ 0.7 ratio"
- Binder: "YCEENYLDPHQYQYFIYFK(COCH2)Y (thioether 2-19 (inferred)) [cyclic peptide SEQ ID NO: 250]"
  Measured: "≥ 0.7 ratio"
- Binder: "DCLQFIYQYLYTVK(COCH2)I (thioether 2-14) [cyclic peptide SEQ ID NO: 375]"
  Measured: "0.1 to 0.5 ratio"
- Binder: "QCLTQRVYLRQLAYYRLYRK(COCH2)I (thioether 2-20 (inferred)) [cyclic peptide SEQ ID NO: 405]"
  Measured: "0.1 to 0.5 ratio"
- Binder: "KCPQNFINPVQARYFQHYKN (not fully specified; thioether ring (C)-(K(acetyl))) [cyclic peptide SEQ ID NO: 62]"
  Measured: "0.1 to 0.5 ratio"

Record summary for YCEENYLDMEQYQYFIYFK(COCH2)Y (thioether 2-19) [cyclic peptide SEQ ID NO: 353] : reported ELISA luminescence signal at 10 nmol/L peptide, relative to SEQ ID NO: 47 (=1) = ≥ 0.7 ratio

Record summary for YCEENYLDPEQYQYFIKFK(COCH2)Y (thioether 2-19; not fully specified; printed as Y-(C)-EENYLDPEQYQYFIKF-(K(acetyl))-Y) [cyclic peptide SEQ ID NO: 345] : reported ELISA luminescence signal at 10 nmol/L peptide, relative to SEQ ID NO: 47 (=1) = ≥ 0.7 ratio
